Tested on: Trichoderma viride
measurement_protocol: Antimicrobial activity against Hypocrea rufa ATCC 28020 after 48 hr by agar dilution method
Assay type: functional
run_parameters: ATCC 28020, 48 h
Below is a list of entries, each paired with its recorded MIC value.
measured_property: MIC (µg/mL)

compound	measured_property	lt_gt_eq	quantitative_readout
C[C@H](CCC1(O)O[C@H]2C[C@H]3[C@@H]4CC[C@H]5C[C@@H](O[C@@H]6O[C@H](CO)[C@H](O[C@@H]7O[C@H](CO)[C@@H](O)[C@H](O[C@@H]8OC[C@@H](O)[C@H](O)[C@H]8O)[C@H]7O[C@@H]7O[C@H](CO)[C@@H](O)[C@H](O)[C@H]7O)[C@H](O)[C@H]6O)CC[C@]5(C)[C@H]4CC[C@]3(C)[C@H]2[C@@H]1C)CO[C@@H]1O[C@H](CO)[C@@H](O)[C@H](O)[C@H]1O (stereo partly specified)	MIC	>	1000
C=C[C@](C)(CC/C=C(\C)CC/C=C(\C)CC/C=C(/C)CO[C@@H]1O[C@@H](C)[C@H](O)[C@@H](O[C@@H]2O[C@H](CO[C@@H]3O[C@@H](C)[C@H](O)[C@@H](O)[C@H]3O)[C@@H](O)[C@H](O)[C@H]2O)[C@H]1O)O[C@@H]1O[C@H](CO)[C@@H](O)[C@H](O)[C@H]1O[C@@H]1O[C@H](CO)[C@@H](O)[C@H](O)[C@H]1O [CAPSIANOSIDE II]	MIC	=	1000
C[C@H](CCC1(O)O[C@H]2C[C@H]3[C@@H]4CC[C@H]5C[C@@H](O[C@@H]6O[C@H](CO)[C@H](O[C@@H]7O[C@H](CO)[C@@H](O)[C@H](O[C@@H]8O[C@H](CO)[C@@H](O)[C@H](O)[C@H]8O)[C@H]7O[C@@H]7O[C@H](CO)[C@@H](O)[C@H](O[C@@H]8O[C@H](CO)[C@@H](O)[C@H](O)[C@H]8O)[C@H]7O)[C@H](O)[C@H]6O)CC[C@]5(C)[C@H]4CC[C@]3(C)[C@H]2[C@@H]1C)CO[C@@H]1O[C@H](CO)[C@@H](O)[C@H](O)[C@H]1O (stereo partly specified) [CAPSICOSIDE G]	MIC	=	1000
COC1(CC[C@@H](C)CO[C@@H]2O[C@H](CO)[C@@H](O)[C@H](O)[C@H]2O)O[C@H]2C[C@H]3[C@@H]4CC[C@H]5C[C@@H](O[C@@H]6O[C@H](CO)[C@H](O[C@@H]7O[C@H](CO)[C@@H](O)[C@H](O[C@@H]8O[C@H](CO)[C@@H](O)[C@H](O)[C@H]8O)[C@H]7O[C@@H]7O[C@H](CO)[C@@H](O)[C@H](O[C@@H]8O[C@H](CO)[C@@H](O)[C@H](O)[C@H]8O)[C@H]7O)[C@H](O)[C@H]6O)CC[C@]5(C)[C@H]4CC[C@]3(C)[C@H]2[C@@H]1C (stereo partly specified) [22-O-METHYLCAPSICOSIDE G]	MIC	=	250
C[C@H](CCC1(O)O[C@H]2C[C@H]3[C@@H]4CC[C@H]5C[C@@H](O[C@@H]6O[C@H](CO)[C@H](O[C@@H]7O[C@H](CO)[C@@H](O)[C@H](O[C@@H]8O[C@H](CO)[C@@H](O)[C@H](O)[C@H]8O)[C@H]7O[C@@H]7O[C@H](CO)[C@@H](O)[C@H](O[C@@H]8O[C@H](CO)[C@@H](O)[C@H](O)[C@H]8O)[C@H]7O)[C@H](O)[C@H]6O)[C@H](O)C[C@]5(C)[C@H]4CC[C@]3(C)[C@H]2[C@@H]1C)CO[C@@H]1O[C@H](CO)[C@@H](O)[C@H](O)[C@H]1O (stereo partly specified) [CAPSICOSIDE A]	MIC	>	1000
COC1(CC[C@@H](C)CO[C@@H]2O[C@H](CO)[C@@H](O)[C@H](O)[C@H]2O)O[C@H]2C[C@H]3[C@@H]4CC[C@H]5C[C@@H](O[C@@H]6O[C@H](CO)[C@H](O[C@@H]7O[C@H](CO)[C@@H](O)[C@H](O[C@@H]8O[C@H](CO)[C@@H](O)[C@H](O)[C@H]8O)[C@H]7O[C@@H]7O[C@H](CO)[C@@H](O)[C@H](O[C@@H]8O[C@H](CO)[C@@H](O)[C@H](O)[C@H]8O)[C@H]7O)[C@H](O)[C@H]6O)[C@H](O)C[C@]5(C)[C@H]4CC[C@]3(C)[C@H]2[C@@H]1C (stereo partly specified) [O-METHYLCAPSICOSIDE A]	MIC	=	250
